For each of the compounds below, state its log10 TGI.
Tested on: IGROV1 ovarian
protocol-text: NCI tumour cell line growth inhibition, 48 h
Record value = log10 of TGI given in µM.

Examples from the recorded data:
CC1=Nc2ccccc2/C1=C\c1c(C)[nH]c2ccccc12	1.40
COc1cccc(N[C@@H]2c3cc4c(cc3C(c3cc(OC)c(O)c(OC)c3)[C@H]3C(=O)OCC32)OCO4)c1 (some centres not stated)	1.53
COC(=O)COc1ccc(/C=C2/N=C(c3ccccc3)N(c3c(C)n(C)n(-c4ccccc4)c3=O)C2=O)cc1	1.63
Cc1nc(Nc2ccccn2)sc1C(=O)/C=C/c1ccc(Cl)cc1	1.49
COc1ccc2cc(CNCCCCCCNCc3ccc4cc(OC)ccc4c3)ccc2c1	0.50
CC(C)=CCC(OC(=O)C=C(C)C)C1=CC(=O)c2c(O)ccc(O)c2C1=O (configuration not stated)	0.65

Each compound below has a recorded value; state its log10 TGI.
1. O=c1[nH]c2ccccc2n1CCCN1CCC(n2c(=O)[nH]c3cc(Cl)ccc32)CC1
2. OCc1ccc(-c2cscc2-c2ccc(CO)o2)o1
3. CCOC(=O)CCn1ncc(Cl)c(Cl)c1=O
4. CC(C)(C)CC(C)(C)c1cc(O)c(O)c(CN2CCCCC2)c1
5. COc1ccc(OC)c(SC(CC(=O)c2ccccc2)c2ccccc2)c1 (configuration not stated)
6. C=CCC1C(O[Si](C)(C)C(C)(C)C)C(CO[Si](C)(C)C(C)(C)C)OC1n1ccc(=O)[nH]c1=O (configuration not stated)
7. CC(C)/C(Cl)=N\OC(NC(=O)P(=O)(c1ccccc1)c1ccccc1)(C(F)(F)F)C(F)(F)F

1: 1.62; 2: 0.81; 3: 1.41; 4: 1.54; 5: 1.36; 6: 0.48; 7: 1.45
